measurement.notes: in vitro
reported.conditions: human, hela cells, % viability
quantity: viability at 28.5 h, 10 µM (%)
Dear colleague, please return just the value in %, with no unit written.

Sample records with viability at 28.5 h, 10 µM:
> print(dat)
                                   compound  observed.result
1  CN(Cc1nc2c(s1)CCCC2)C(=O)CCn1nnc2ccccc21              107
2  CCOc1cc(Cl)c(S(=O)(=O)NCCCN2CCOCC2)cc1Cl             87.9
3  Cc1cc(NS(=O)(=O)c2ccc(NC(=O)C(c3ccccc3)c3ccccc3)cc2)no1               94
4  CCOC(=O)Cc1csc(NS(=O)(=O)c2cc(Cl)c(Cl)s2)n1               98
5  Cc1ccccc1Cn1c(CN2CCN(c3ccccc3)CC2)nc2c1c(=O)n(C)c(=O)n2C             94.6

Challenge: Entry under review: "NC(=O)c1ccc(NC(=O)N2CCN(CCc3ccccc3)CC2)cc1" . Reported viability at 28.5 h, 10 µM?
Response given: 95.3

Challenge: Entry under review: CNCCOc1ccccc1O [CBK023215C] . Reported viability at 28.5 h, 10 µM?
Response given: 99.8

Challenge: Entry under review: "OCc1ccc(-n2ncc(-c3ccc(Br)cc3F)n2)cc1" . Reported viability at 28.5 h, 10 µM?
Response given: 96.6

Challenge: Entry under review: "COc1ccc(Sc2nccnc2NC(C)C)cc1OC" . Reported viability at 28.5 h, 10 µM?
Response given: 87.4

Challenge: Entry under review: Cc1ccc(C)c(C(C)NC(=O)C2CCCN(S(C)(=O)=O)C2)c1 (stereo not drawn) . Reported viability at 28.5 h, 10 µM?
Response given: 96.6

###

measurement.notes: in vitro
reported.conditions: human, hela cells, % viability
In this section, each of the molecules is paired with its reported viability at 28.5 h, 10 µM.
Dear colleague, please return just the value in %, with no unit written.

Sample records with viability at 28.5 h, 10 µM:
> print(dat)
                                   molecule  unit.annotation  observed.result
1  Cc1nc(C2(O)CCCN(C3CCCCC3)CC2)sc1COc1ccc(F)c(F)c1 (stereo not shown)                %             86.4
2  CC(=O)NC(c1ccccn1)C1CCCN(C(=O)C(C)C)C1 (stereo not shown)                %              111
3  O=[N+]([O-])c1ccc(CN2CCC(Oc3cncc(OCC4COc5ccccc5O4)n3)C2)cc1 (stereo not shown)                %             99.3

Challenge: Entry under review: COc1ccc([C@@]23CC[C@@H](NC(=O)c4cccc(Cl)c4)C[C@@H]2N(C)CC3)cc1OC [CBK073982T] . Reported viability at 28.5 h, 10 µM?
Response given: 93.5

###

In this section, each of the compounds is paired with its reported viability at 28.5 h, 10 µM.
measurement.notes: in vitro
reported.conditions: human, hela cells, % viability
Dear colleague, please return just the value in %, with no unit written.

> print(dat)
                                   compound                    quantity  observed.result
1  Cc1nn(C)c(C)c1S(=O)(=O)n1ccn(-c2cccc(C(F)(F)F)c2)c1=O [CBK106593]  viability at 28.5 h, 10 µM             98.7
2   O=C(CSc1cnn[nH]1)Nc1ccccc1F [CBK269903]  viability at 28.5 h, 10 µM              101

Challenge: Entry under review: CCC(CC)C(=O)N1c2ccccc2C(C)(c2ccccc2)CC1(C)C (stereo not shown) [CBK073862] . Reported viability at 28.5 h, 10 µM?
Response given: 91.5

Challenge: Entry under review: O=C(N/N=C/c1ccc(N2N=C(c3ccc(Cl)cc3)CC2c2ccc(Cl)cc2)cc1)c1cccnc1 (stereo not shown) [CBK262494] . Reported viability at 28.5 h, 10 µM?
Response given: 103

Challenge: Entry under review: CS(=O)(=O)Nc1nccnc1OC1CCNCC1 [CBK074265T] . Reported viability at 28.5 h, 10 µM?
Response given: 90.6

###

In this section, each of the compounds is paired with its reported viability at 28.5 h, 10 µM.
measurement.notes: in vitro
reported.conditions: human, hela cells, % viability
Dear colleague, please return just the value in %, with no unit written.

> print(dat)
                                   compound  observed.result
1  O=S(=O)(N1CCCCC1)N1CCN(CC(O)COc2ccc3cc(Br)ccc3c2)CC1 (stereo not shown) [CBK269032]              106
2  OC(CNCCc1cccnc1)COc1cccc2c1CCCC2 (stereo not shown) [CBK002237]              106
3  CCn1nc(CC(C)C)cc1C(=O)NCCc1cn2cccnc2n1 [CBK306553]             98.9

Challenge: Entry under review: O=C(Nc1ccccc1)c1ccc(N2CCN(c3ccccn3)CC2)c(S(=O)(=O)N2CCOCC2)c1 [CBK266810] . Reported viability at 28.5 h, 10 µM?
Response given: 91.7

Challenge: Entry under review: CCc1cccc(C)c1NC(=O)CN(c1cccc(Cl)c1Cl)S(=O)(=O)c1ccc(C)cc1 [CBK268666] . Reported viability at 28.5 h, 10 µM?
Response given: 84.7

Challenge: Entry under review: Cc1cc(C)nc(Nc2ccc(C3CCCN(C(=O)C(C)(C)c4cccc(F)c4)C3)nc2)n1 (stereo not shown) [CBK286007] . Reported viability at 28.5 h, 10 µM?
Response given: 85.2

Challenge: Entry under review: COc1cc2c(cc1C(C)c1ccc3c(c1)OCO3)OCO2 (stereo not shown) [CBK200107] . Reported viability at 28.5 h, 10 µM?
Response given: 97.4

Challenge: Entry under review: CNc1ccc2cccc(OCCO)c2n1 [CBK149727] . Reported viability at 28.5 h, 10 µM?
Response given: 95.6

Challenge: Entry under review: C/C(CCc1ccccc1)=N\NC(=O)c1ccc(CN2CCOCC2)cc1 [CBK262752] . Reported viability at 28.5 h, 10 µM?
Response given: 99.5

Challenge: Entry under review: COc1ccc(Oc2nccnc2N2CCN(Cc3ccc(Cl)cc3)CC2)cc1OC [CBK083041T] . Reported viability at 28.5 h, 10 µM?
Response given: 87.3

Challenge: Entry under review: CCCn1cc(CN2C3CCC2CC(O)(c2ccccc2F)C3)cn1 (stereo not shown) [CBK282664] . Reported viability at 28.5 h, 10 µM?
Response given: 99.3

Challenge: Entry under review: O=C(CN(c1ccc(Cl)cc1)S(=O)(=O)c1ccccc1)Nc1ccc(F)cc1 [CBK264013] . Reported viability at 28.5 h, 10 µM?
Response given: 90.5

Challenge: Entry under review: O=C(NC(=S)Nc1ccc2oc(-c3ccncc3)nc2c1)c1ccccc1[N+](=O)[O-] [CBK264106] . Reported viability at 28.5 h, 10 µM?
Response given: 87.3

Challenge: Entry under review: CC(C(=O)Nc1ccc(S(N)(=O)=O)cc1)N1Cc2ccccc2C1=O (stereo not shown) [CBK307607] . Reported viability at 28.5 h, 10 µM?
Response given: 82.8

Challenge: Entry under review: CCn1c(CC2CCN(C(=O)CCn3cc(C)cn3)CC2)nn(C)c1=O [CBK307584] . Reported viability at 28.5 h, 10 µM?
Response given: 89.7

Challenge: Entry under review: O=C(CC1SC(NC2CCCCC2)=NC1=O)Nc1cc(Cl)ccc1Cl (stereo not shown) [CBK059501] . Reported viability at 28.5 h, 10 µM?
Response given: 91

###

measurement.notes: in vitro
reported.conditions: human, hela cells, % viability
Note to self: viability at 28.5 h, 10 µM under 90% means 1, ties and anything higher get -1.

Record excerpt, results attached:
> print(dat)
                              record.smiles  label.class
1                 COCCNS(=O)(=O)c1ccc(C)cc1            1
2    O=C(NCc1cccc2ccccc12)C1(c2ccccc2)CCCC1           -1
3  Cc1c(C(=O)O)sc(S(=O)(=O)N2CCN(C(=O)c3ccc(C(C)(C)C)cc3)CC2)c1C(=O)O            1
4  Nc1nc(F)nc2c1ncn2[C@H]1C[C@@H](O)[C@@H](CO)O1            1

Now turn to the next compound.
Challenge: Confirm or reject: viability at 28.5 h, 10 µM of "Cc1ccc(CN(CCCN(C)C)Cc2cccc(O)c2)o1" lies strictly below 90%
Response given: -1

Data provenance is paper PMC12040169.
